experiment.summary: Oral bioavailability in dog
Format: ADME, organism-based, Canis lupus familiaris
stated.conditions: in vivo
quantity.name: bioavailability (%)
Express your answer in %, writing the number without its unit.

Req: Given Cc1csc(-c2cc(-c3ccncc3)c3n(c2=O)CCCc2ccncc2-3)n1 , state its recorded bioavailability.
Resp: 20

###

target.or.system: Gamma-aminobutyric acid receptor subunit alpha-3 (Homo sapiens) (UniProt P34903)
Sequence (P34903 whole entry): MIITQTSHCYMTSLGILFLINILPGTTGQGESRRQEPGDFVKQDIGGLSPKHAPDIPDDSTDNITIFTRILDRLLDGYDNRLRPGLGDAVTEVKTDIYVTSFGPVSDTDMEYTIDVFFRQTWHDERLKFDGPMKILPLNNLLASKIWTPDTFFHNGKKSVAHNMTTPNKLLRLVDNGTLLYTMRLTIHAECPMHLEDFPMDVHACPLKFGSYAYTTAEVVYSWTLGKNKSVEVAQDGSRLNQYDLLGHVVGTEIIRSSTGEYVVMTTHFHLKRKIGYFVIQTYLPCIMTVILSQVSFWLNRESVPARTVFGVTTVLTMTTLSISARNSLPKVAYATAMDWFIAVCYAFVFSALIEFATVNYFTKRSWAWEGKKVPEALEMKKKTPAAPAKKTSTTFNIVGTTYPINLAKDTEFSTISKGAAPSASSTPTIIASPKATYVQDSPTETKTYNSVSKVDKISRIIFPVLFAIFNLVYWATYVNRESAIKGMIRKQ
experiment.summary: Efficacy at Gamma-aminobutyric acid A receptor, alpha 3-ion channel relative to chlorodiazepoxide.
Assign 1 (yes) to entries whose Efficacy meets or exceeds -0.01; assign 0 (no) to the rest.

Check out these entries, answers already filled in.
smiles_notation=Cc1csc(-c2cc(-c3ccncn3)c3n(c2=O)CCCc2ccncc2-3)n1 answer_label="1 (yes)"
smiles_notation=Cc1csc(-c2cc(-c3cccnn3)c3n(c2=O)CCCc2ccncc2-3)n1 answer_label="0 (no)"
smiles_notation=Cc1csc(-c2cc(-c3ccc(Cl)cc3)c3n(c2=O)CCCc2ccncc2-3)n1 answer_label="1 (yes)"
smiles_notation=Cc1csc(-c2cc(-c3cccnc3)c3n(c2=O)CCCc2ccncc2-3)n1 answer_label="0 (no)"
smiles_notation=Cc1csc(-c2cc(-c3ccccc3)c3n(c2=O)CCCc2ccncc2-3)n1 answer_label="1 (yes)"

In the following, a different compound is considered.
Req: Could you tell me if the measured Efficacy of Cc1csc(-c2cc(-c3ccc(C#N)cc3)c3n(c2=O)CCCc2ccncc2-3)n1 reaches -0.01 or more?
Resp: 1 (yes)

###

target.or.system: GABA-A receptor; alpha-3/beta-3/gamma-2 (Homo sapiens, UniProt P18507+P28472+P34903)
Sequence (P34903 whole entry, one chain of several): as the sequence (P34903 whole entry) above
experiment.summary: Binding affinity at human recombinant gamma-aminobutyric-acid A receptor alpha-3-beta-3-gamma-2 expressed in L(tk) cells by [3H]Ro-151788 displacement.
Some molecules, each annotated with its measured Ki.
Express your answer in nM, writing the number without its unit.

smiles_notation=Cc1csc(-c2cc(-c3ccccc3C)c3n(c2=O)CCCc2ccncc2-3)n1 numeric_readout=1.2
smiles_notation=Cc1csc(-c2cc(-c3cccnc3)c3n(c2=O)CCCc2ccncc2-3)n1 numeric_readout=2.4
smiles_notation=Cc1csc(-c2cc(-c3cccnn3)c3n(c2=O)CCCc2ccncc2-3)n1 numeric_readout=17.3
smiles_notation=Cc1csc(-c2cc(-c3ccnnc3)c3n(c2=O)CCCc2ccncc2-3)n1 numeric_readout=5
smiles_notation=Cc1csc(-c2cc(-c3ccc(C#N)cc3)c3n(c2=O)CCCc2ccncc2-3)n1 numeric_readout=3.1

Req: Given Cc1csc(-c2cc(-c3ccoc3)c3n(c2=O)CCCc2ccncc2-3)n1 , state its recorded Ki.
Resp: 4.4

Req: Given Cc1csc(-c2cc(-c3cncnc3)c3n(c2=O)CCCc2ccncc2-3)n1 , state its recorded Ki.
Resp: 9

Req: Given Cc1csc(-c2cc(-c3ccc(Cl)cc3)c3n(c2=O)CCCc2ccncc2-3)n1 , state its recorded Ki.
Resp: 0.4

Req: Given Cc1csc(-c2cc(-c3c(C)noc3C)c3n(c2=O)CCCc2ccncc2-3)n1 , state its recorded Ki.
Resp: 3.1

Req: Given Cc1csc(-c2cc(-c3ccncn3)c3n(c2=O)CCCc2ccncc2-3)n1 , state its recorded Ki.
Resp: 8.5

###

target.or.system: Gamma-aminobutyric acid receptor subunit alpha-3 (Homo sapiens) (UniProt P34903)
experiment.summary: Efficacy at Gamma-aminobutyric acid A receptor, alpha 3-ion channel relative to chlorodiazepoxide.
Some compounds, each annotated with its measured Efficacy.
Lab note: record just the number, no unit beside it.

Take a look at these entries with their results.
smiles_notation=Cc1csc(-c2cc(-c3c(C)noc3C)c3n(c2=O)CCCc2ccncc2-3)n1 target_or_system="Gamma-aminobutyric acid receptor subunit alpha-3 (Homo sapiens) (UniProt P34903)" numeric_readout=0.41
smiles_notation=Cc1csc(-c2cc(-c3ccn(C)n3)c3n(c2=O)CCCc2ccncc2-3)n1 target_or_system="Gamma-aminobutyric acid receptor subunit alpha-3 (Homo sapiens) (UniProt P34903)" numeric_readout=0.47
smiles_notation=Cc1csc(-c2cc(-c3cccn3C)c3n(c2=O)CCCc2ccncc2-3)n1 target_or_system="Gamma-aminobutyric acid receptor subunit alpha-3 (Homo sapiens) (UniProt P34903)" numeric_readout=0.46
smiles_notation=Cc1csc(-c2cc(-c3ccccc3F)c3n(c2=O)CCCc2ccncc2-3)n1 target_or_system="Gamma-aminobutyric acid receptor subunit alpha-3 (Homo sapiens) (UniProt P34903)" numeric_readout=0.48
smiles_notation=Cc1csc(-c2cc(-c3ccncc3)c3n(c2=O)CCCc2ccncc2-3)n1 target_or_system="Gamma-aminobutyric acid receptor subunit alpha-3 (Homo sapiens) (UniProt P34903)" numeric_readout=0.45

Req: Lab note: need Efficacy for Cc1csc(-c2cc(-c3cncnc3)c3n(c2=O)CCCc2ccncc2-3)n1 on Gamma-aminobutyric acid receptor subunit alpha-3 (Homo sapiens) (UniProt P34903), anyone have it?
Resp: 0.16

Req: Lab note: need Efficacy for Cc1csc(-c2cc(-c3ccc[nH]3)c3n(c2=O)CCCc2ccncc2-3)n1 on Gamma-aminobutyric acid receptor subunit alpha-3 (Homo sapiens) (UniProt P34903), anyone have it?
Resp: 0.41

Req: Lab note: need Efficacy for Cc1csc(-c2cc(-c3ccoc3)c3n(c2=O)CCCc2ccncc2-3)n1 on Gamma-aminobutyric acid receptor subunit alpha-3 (Homo sapiens) (UniProt P34903), anyone have it?
Resp: 0.05

Req: Lab note: need Efficacy for Cc1csc(-c2cc(-c3ccccc3C)c3n(c2=O)CCCc2ccncc2-3)n1 on Gamma-aminobutyric acid receptor subunit alpha-3 (Homo sapiens) (UniProt P34903), anyone have it?
Resp: 0.36

Req: Lab note: need Efficacy for Cc1csc(-c2cc(-c3ccnnc3)c3n(c2=O)CCCc2ccncc2-3)n1 on Gamma-aminobutyric acid receptor subunit alpha-3 (Homo sapiens) (UniProt P34903), anyone have it?
Resp: 0.2

###

target.or.system: GABA-A receptor; alpha-1/beta-3/gamma-2 (Homo sapiens, UniProt P14867+P18507+P28472)
Sequence (P14867 whole entry): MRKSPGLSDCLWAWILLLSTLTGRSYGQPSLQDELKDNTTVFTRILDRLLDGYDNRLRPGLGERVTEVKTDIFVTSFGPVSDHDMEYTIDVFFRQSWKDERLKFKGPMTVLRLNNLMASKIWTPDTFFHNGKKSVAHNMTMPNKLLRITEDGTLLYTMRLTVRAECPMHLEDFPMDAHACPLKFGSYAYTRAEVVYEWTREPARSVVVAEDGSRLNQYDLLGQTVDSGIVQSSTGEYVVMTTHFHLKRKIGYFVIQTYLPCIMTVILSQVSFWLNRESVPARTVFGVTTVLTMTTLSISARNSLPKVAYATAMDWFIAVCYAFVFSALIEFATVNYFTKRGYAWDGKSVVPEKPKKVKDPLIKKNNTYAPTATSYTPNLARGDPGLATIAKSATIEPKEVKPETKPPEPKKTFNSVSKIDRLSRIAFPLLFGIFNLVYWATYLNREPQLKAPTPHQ
Sequence (P18507 whole entry): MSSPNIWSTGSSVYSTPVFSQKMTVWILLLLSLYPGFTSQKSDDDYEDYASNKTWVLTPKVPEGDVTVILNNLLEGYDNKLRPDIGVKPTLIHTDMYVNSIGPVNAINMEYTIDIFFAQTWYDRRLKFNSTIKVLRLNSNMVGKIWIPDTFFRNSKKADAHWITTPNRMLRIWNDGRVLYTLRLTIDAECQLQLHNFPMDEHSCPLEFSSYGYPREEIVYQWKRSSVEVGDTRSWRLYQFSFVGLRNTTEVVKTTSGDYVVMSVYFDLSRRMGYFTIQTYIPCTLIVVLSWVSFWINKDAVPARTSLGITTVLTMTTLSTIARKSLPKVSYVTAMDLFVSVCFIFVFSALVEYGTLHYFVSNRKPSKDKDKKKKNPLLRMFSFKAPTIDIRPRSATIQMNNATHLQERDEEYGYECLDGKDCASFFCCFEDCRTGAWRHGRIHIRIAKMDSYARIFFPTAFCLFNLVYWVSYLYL
Sequence (P28472 whole entry): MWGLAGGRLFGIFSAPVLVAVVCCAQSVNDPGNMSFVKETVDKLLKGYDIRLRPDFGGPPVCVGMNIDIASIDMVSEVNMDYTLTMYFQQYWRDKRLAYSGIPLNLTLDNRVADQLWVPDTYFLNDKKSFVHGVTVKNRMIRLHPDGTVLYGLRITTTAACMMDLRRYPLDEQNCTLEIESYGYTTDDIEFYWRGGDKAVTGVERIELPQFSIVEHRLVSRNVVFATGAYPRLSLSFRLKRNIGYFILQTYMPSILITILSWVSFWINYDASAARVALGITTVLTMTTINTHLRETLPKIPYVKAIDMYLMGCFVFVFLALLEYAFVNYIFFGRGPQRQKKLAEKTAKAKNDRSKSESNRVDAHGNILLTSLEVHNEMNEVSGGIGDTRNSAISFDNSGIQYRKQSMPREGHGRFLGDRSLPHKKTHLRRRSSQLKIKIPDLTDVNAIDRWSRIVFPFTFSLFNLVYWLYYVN
experiment.summary: Binding affinity at human recombinant gamma-aminobutyric-acid A receptor alpha-1-beta-3-gamma-2 expressed in L(tk) cells by [3H]Ro-151788 displacement.
Type: cell-based
Some molecules, each annotated with its measured pKi.
// returns pKi (minus log10 of molar concentration), number only

smiles_notation=Cc1csc(-c2cc(-c3ccc[nH]3)c3n(c2=O)CCCc2ccncc2-3)n1 quantity_name=pKi numeric_readout=8.11
smiles_notation=Cc1csc(-c2cc(-c3cncnc3)c3n(c2=O)CCCc2ccncc2-3)n1 quantity_name=pKi numeric_readout=7.68
smiles_notation=Cc1csc(-c2cc(-c3cccnn3)c3n(c2=O)CCCc2ccncc2-3)n1 quantity_name=pKi numeric_readout=7.58

Req: Given Cc1csc(-c2cc(-c3c(C)noc3C)c3n(c2=O)CCCc2ccncc2-3)n1 , state its recorded pKi.
Resp: 8.34

Req: Given Cc1csc(-c2cc(-c3ccncn3)c3n(c2=O)CCCc2ccncc2-3)n1 , state its recorded pKi.
Resp: 7.91

Req: Given Cc1csc(-c2cc(-c3ccn(C)n3)c3n(c2=O)CCCc2ccncc2-3)n1 , state its recorded pKi.
Resp: 8.00

Req: Given Cc1csc(-c2cc(-c3ccncc3)c3n(c2=O)CCCc2ccncc2-3)n1 , state its recorded pKi.
Resp: 8.89

Req: Given Cc1csc(-c2cc(-c3cccn3C)c3n(c2=O)CCCc2ccncc2-3)n1 , state its recorded pKi.
Resp: 8.40

Req: Given Cc1csc(-c2cc(-c3ccoc3)c3n(c2=O)CCCc2ccncc2-3)n1 , state its recorded pKi.
Resp: 8.41

###

target.or.system: Gamma-aminobutyric acid receptor subunit alpha-4 (Homo sapiens)
Sequence (P48169 whole entry): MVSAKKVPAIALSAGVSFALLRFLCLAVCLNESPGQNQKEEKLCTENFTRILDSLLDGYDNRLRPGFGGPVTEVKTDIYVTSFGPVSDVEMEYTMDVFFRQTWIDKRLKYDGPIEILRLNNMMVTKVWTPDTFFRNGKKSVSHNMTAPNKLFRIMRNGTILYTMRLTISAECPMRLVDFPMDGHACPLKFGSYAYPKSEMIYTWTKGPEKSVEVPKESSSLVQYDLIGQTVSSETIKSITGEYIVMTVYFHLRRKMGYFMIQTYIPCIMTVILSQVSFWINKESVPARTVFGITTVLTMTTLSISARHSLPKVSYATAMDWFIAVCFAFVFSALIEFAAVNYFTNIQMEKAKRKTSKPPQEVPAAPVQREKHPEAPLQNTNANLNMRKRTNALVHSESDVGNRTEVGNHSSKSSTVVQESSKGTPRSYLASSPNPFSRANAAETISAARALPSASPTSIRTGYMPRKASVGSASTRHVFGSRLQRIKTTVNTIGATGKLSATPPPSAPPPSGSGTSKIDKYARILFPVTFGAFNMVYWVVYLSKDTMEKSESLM
experiment.summary: Displacement of [3H]Ro-151788 from human GABA-A receptor alpha4 subunit expressed in L(tk) cells
quantity.name: Ki

Req: Given Cc1csc(-c2cc(-c3ccncc3)c3n(c2=O)CCCc2ccncc2-3)n1 , state its recorded Ki.
Resp: 27.9 nM

###

target.or.system: Gamma-aminobutyric acid receptor subunit alpha-6 (Homo sapiens, UniProt Q16445)
Sequence (Q16445 whole entry): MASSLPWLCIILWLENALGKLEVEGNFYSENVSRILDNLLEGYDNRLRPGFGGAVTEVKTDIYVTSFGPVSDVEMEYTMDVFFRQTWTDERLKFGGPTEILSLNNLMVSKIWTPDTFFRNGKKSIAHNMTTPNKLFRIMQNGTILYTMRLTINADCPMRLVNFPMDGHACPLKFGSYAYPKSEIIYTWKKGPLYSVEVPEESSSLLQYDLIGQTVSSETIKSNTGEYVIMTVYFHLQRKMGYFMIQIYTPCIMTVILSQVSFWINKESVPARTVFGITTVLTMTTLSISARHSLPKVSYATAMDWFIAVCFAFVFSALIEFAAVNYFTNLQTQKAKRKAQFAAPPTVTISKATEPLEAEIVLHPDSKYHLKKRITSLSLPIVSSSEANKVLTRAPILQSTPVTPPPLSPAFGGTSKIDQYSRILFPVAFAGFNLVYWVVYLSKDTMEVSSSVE
experiment.summary: Displacement of [3H]Ro-151788 from human GABA-A receptor alpha6 subunit expressed in L(tk) cells
quantity.name: pKi
// returns pKi (minus log10 of molar concentration), number only

Req: Lab note: need pKi for Cc1csc(-c2cc(-c3ccncc3)c3n(c2=O)CCCc2ccncc2-3)n1 on Gamma-aminobutyric acid receptor subunit alpha-6 (Homo sapiens, UniProt Q16445), anyone have it?
Resp: 7.18

###

target.or.system: Gamma-aminobutyric acid receptor subunit alpha-5 (Homo sapiens, UniProt P31644)
Sequence (P31644 whole entry): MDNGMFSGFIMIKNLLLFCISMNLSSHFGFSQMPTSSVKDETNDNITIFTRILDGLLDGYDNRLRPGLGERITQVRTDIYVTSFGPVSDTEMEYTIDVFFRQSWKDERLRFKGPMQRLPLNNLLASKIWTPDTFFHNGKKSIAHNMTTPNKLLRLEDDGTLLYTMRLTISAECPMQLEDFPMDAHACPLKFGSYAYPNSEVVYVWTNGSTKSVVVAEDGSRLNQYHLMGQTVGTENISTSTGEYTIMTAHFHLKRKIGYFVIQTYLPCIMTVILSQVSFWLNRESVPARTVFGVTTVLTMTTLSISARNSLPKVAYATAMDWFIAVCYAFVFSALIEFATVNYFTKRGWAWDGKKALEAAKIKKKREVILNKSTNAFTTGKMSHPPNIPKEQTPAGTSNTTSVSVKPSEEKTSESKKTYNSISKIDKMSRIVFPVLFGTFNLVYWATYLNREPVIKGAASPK
experiment.summary: Displacement of [3H]-Ro-15-1788 from human GABA-A receptor alpha5 subunit expressed in L(tk) cells
pKi: −log10 of the molar value.
quantity.name: pKi

Req: Given Cc1csc(-c2cc(-c3ccncc3)c3n(c2=O)CCCc2ccncc2-3)n1 , state its recorded pKi.
Resp: < 7.48
